# Tested on: STREPTOCOCCUS PYOGENES PIU 2548
# assayExplanation: In vitro antibacterial activity (MIC), agar dilution
# Format: cell-based
# cond: S. pyogenes PIU 2548; BHI agar, 35-37 °C, 20-24 h
metric: minimum inhibitory concentration (MIC)
Numbers only.

# count of solved cases: 2
smilesCode	minimum inhibitory concentration (MIC)
CC[C@H]1OC(=O)[C@H](C)C[C@H](C)[C@@H](O[C@@H]2O[C@H](C)C[C@H](N(C)C)[C@H]2O)[C@](C)(OC)C[C@@H](C)C(=O)[C@H](C)[C@H]2N(CCCCc3ccccc3)C(=O)O[C@]12C	0.2
CC[C@H]1OC(=O)[C@H](C)C[C@H](C)[C@@H](O[C@@H]2O[C@H](C)C[C@H](N(C)C)[C@H]2O)[C@](C)(OC)C[C@@H](C)C(=NOCOCCOC)[C@H](C)[C@@H](O)[C@]1(C)O	6.2

Now for the molecule whose minimum inhibitory concentration (MIC) we want.
INPUT: Hello, I am looking for reported minimum inhibitory concentration (MIC) with STREPTOCOCCUS PYOGENES PIU 2548 for `CC[C@H]1OC(=O)[C@H](C)C[C@H](C)[C@@H](O[C@@H]2O[C@H](C)C[C@H](N(C)C)[C@H]2O)[C@](C)(OC)C[C@@H](C)C(=NO)[C@H](C)[C@@H](O)[C@]1(C)O` . Could you help?
OUTPUT: 0.56
